Molecular target: RPS6KA3 KD1 KD2 (human)
Assay: Caliper, Mobility shift assay off-chip
Settings: compound 1.0 µM
value-kind: inhibition (%)

>>> reported_measurement("Cn1cc(-c2cnc3ccc4ccc(CS(=O)(=O)NCC5CCCCN5)cc4c(=O)c3c2)cn1 (stereo not given)")
-6
>>> reported_measurement("Cn1cc(-c2cnc3ccc4ccc(CS(=O)(=O)CCc5ccccn5)cc4c(=O)c3c2)cn1")
-1.3
>>> reported_measurement("CN(c1ccc2ccc3ncc(-c4cnn(C)c4)cc3c(=O)c2c1)S(=O)(=O)NCc1ccccn1")
12.9
>>> reported_measurement("Cn1cc(-c2cnc3ccc4ccc(CS(N)(=O)=O)cc4c(=O)c3c2)cn1")
-1.7
>>> reported_measurement("O=C(CCc1ccc2ccc3ncc(C4CCNCC4)cc3c(=O)c2c1)NCc1ccccn1")
62.5
